Each recorded value in this set is attributed to paper PMC8395335.

# PROCEDURE DETAILS: Pharmacokinetic analysis of drug-drug interactions (plasma, FC concentration, FC penetration)
# Type: in vivo, mice
# SETTINGS: Albino Swiss, mouse, plasma, intraperitoneal, acute, combination F15599 0.05 mg/kg + VU0357017 1 mg/kg; read-out: Plasma
PROPERTY: concentration at 30 min (ng/mL)
The answer is to be given in ng/mL; state only the numeric part.

Query :: Look up concentration at 30 min for this compound: CCOC(=O)N1CCC(NCCNC(=O)c2ccccc2C)CC1
Result :: 7.19

###

Parameter: concentration at 30 min. Scope: all listed entries.
# PROCEDURE DETAILS: Pharmacokinetic analysis of drug-drug interactions (plasma, FC concentration, FC penetration)
# Type: in vivo, mice
# SETTINGS: Albino Swiss, mouse, plasma, intraperitoneal, acute, top doses alone (VU0357017 5, VU0152100 1, VU0238429 5, F15599 0.1 mg/kg), 30 min after administration; read-out: Plasma
The answer is to be given in ng/mL; state only the numeric part.

Query :: Look up concentration at 30 min for this compound: COc1ccc(CN2C(=O)C(=O)c3cc(OC(F)(F)F)ccc32)cc1
Result :: 486

Now let's try a different one.
Query :: Look up concentration at 30 min for this compound: CCOC(=O)N1CCC(NCCNC(=O)c2ccccc2C)CC1
Result :: 107

###

# PROCEDURE DETAILS: Pharmacokinetic analysis of drug-drug interactions (plasma, FC concentration, FC penetration)
# Assay type: in vivo, mice
# SETTINGS: Albino Swiss, mouse, frontal cortex/plasma, intraperitoneal, chronic (7 days with MK-801), combination F15599 0.05 mg/kg + VU0357017 0.15 mg/kg; read-out: PFC Penetration
PROPERTY: Kp at 30 min
Form field (numeric): enter value without unit.

Query :: Look up Kp at 30 min for this molecule: CCOC(=O)N1CCC(NCCNC(=O)c2ccccc2C)CC1 [VU0357017]
Result :: 0.46

###

# PROCEDURE DETAILS: Pharmacokinetic analysis of drug-drug interactions (plasma, FC concentration, FC penetration)
# Assay type: in vivo, mice
# SETTINGS: Albino Swiss, mouse, frontal cortex/plasma, intraperitoneal, acute, combination F15599 0.05 mg/kg + VU0238429 1 mg/kg; read-out: PFC Penetration
PROPERTY: Kp at 30 min
Form field (numeric): enter value without unit.

Query :: Look up Kp at 30 min for this compound: COc1ccc(CN2C(=O)C(=O)c3cc(OC(F)(F)F)ccc32)cc1
Result :: 0.36

###

# PROCEDURE DETAILS: Pharmacokinetic analysis of drug-drug interactions (plasma, FC concentration, FC penetration)
# Format: in vivo, mice
# SETTINGS: Albino Swiss, mouse, prefrontal cortex (FC), intraperitoneal, chronic (7 days with MK-801), combination F15599 0.05 mg/kg + VU0357017 0.15 mg/kg; read-out: PFC
PROPERTY: concentration at 30 min (ng/mL)
The answer is to be given in ng/mL; state only the numeric part.

Query :: Look up concentration at 30 min for this compound: CCOC(=O)N1CCC(NCCNC(=O)c2ccccc2C)CC1
Result :: 2.34

###

# PROCEDURE DETAILS: in vivo
# Design: species or system mice
# SETTINGS: mouse, ip, 0.1 mg/kg
PROPERTY: half-life (min)
The answer is to be given in min; state only the numeric part.

Query :: Look up half-life for this compound: Cc1cnc(CNCC2(F)CCN(C(=O)c3ccc(F)c(Cl)c3)CC2)nc1 [F15599]
Result :: 35

###

# PROCEDURE DETAILS: Pharmacokinetic analysis of drug-drug interactions (plasma, FC concentration, FC penetration)
# Format: in vivo, mice
# SETTINGS: Albino Swiss, mouse, prefrontal cortex (FC), intraperitoneal, chronic (7 days with MK-801), top doses alone (VU0357017 5, VU0152100 1, VU0238429 5, F15599 0.1 mg/kg); read-out: PFC
# Procedure: The experiment was performed using the methods described by Bridges et al. and in our previous studies. The pharmacokinetic analysis was performed in the blood and prefrontal cortex. […] Plasma and FC samples were stored at −80 °C until analysis. […] Brain penetration was calculated as FC/plasma ratio × 100%.
PROPERTY: concentration at 30 min
Param answer (str): number followed by unit.

Query :: Look up concentration at 30 min for this molecule: CCOC(=O)N1CCC(NCCNC(=O)c2ccccc2C)CC1 [VU0357017]
Result :: 50.3 ng/mL

Now let's try a different one.
Query :: Look up concentration at 30 min for this molecule: COc1ccc(CN2C(=O)C(=O)c3cc(OC(F)(F)F)ccc32)cc1 [VU0238429]
Result :: 179 ng/mL

###

# PROCEDURE DETAILS: Pharmacokinetic analysis of drug-drug interactions (plasma, FC concentration, FC penetration)
# Format: in vivo, mice
# SETTINGS: Albino Swiss, mouse, frontal cortex/plasma, intraperitoneal, acute, top doses alone (VU0357017 5, VU0152100 1, VU0238429 5, F15599 0.1 mg/kg), 30 min after administration; read-out: PFC Penetration (FC/plasma ratio x 100%)
# Experimental: The experiment was performed using the methods described by Bridges et al. and in our previous studies. The pharmacokinetic analysis was performed in the blood and prefrontal cortex. […] Plasma and FC samples were stored at −80 °C until analysis. […] Brain penetration was calculated as FC/plasma ratio × 100%.
PROPERTY: Kp at 30 min
Form field (numeric): enter value without unit.

Query :: Look up Kp at 30 min for this compound: COc1ccc(CN2C(=O)C(=O)c3cc(OC(F)(F)F)ccc32)cc1
Result :: 0.53

More entries:
Query :: Look up Kp at 30 min for this compound: CCOC(=O)N1CCC(NCCNC(=O)c2ccccc2C)CC1
Result :: 0.67

###

# PROCEDURE DETAILS: Pharmacokinetic analysis of drug-drug interactions (plasma, FC concentration, FC penetration)
# Assay type: in vivo, mice
# SETTINGS: Albino Swiss, mouse, in vivo, 0.1 mg/kg, PFC
PROPERTY: concentration at 30 min (ng/mL)
The answer is to be given in ng/mL; state only the numeric part.

Query :: Look up concentration at 30 min for this compound: Cc1cnc(CNCC2(F)CCN(C(=O)c3ccc(F)c(Cl)c3)CC2)nc1
Result :: 18.3

###

# PROCEDURE DETAILS: Pharmacokinetic analysis of drug-drug interactions (plasma, FC concentration, FC penetration)
# Format: in vivo, mice
# SETTINGS: Albino Swiss, mouse, plasma, intraperitoneal, acute, combination F15599 0.05 mg/kg + VU0238429 1 mg/kg; read-out: Plasma
# Protocol: The experiment was performed using the methods described by Bridges et al. and in our previous studies. The pharmacokinetic analysis was performed in the blood and prefrontal cortex. […] Plasma and FC samples were stored at −80 °C until analysis. […] Brain penetration was calculated as FC/plasma ratio × 100%.
PROPERTY: concentration at 30 min (ng/mL)
The answer is to be given in ng/mL; state only the numeric part.

Query :: Look up concentration at 30 min for this compound: COc1ccc(CN2C(=O)C(=O)c3cc(OC(F)(F)F)ccc32)cc1
Result :: 120

###

# PROCEDURE DETAILS: Pharmacokinetic analysis of drug-drug interactions (plasma, FC concentration, FC penetration)
# Format: in vivo, mice
# SETTINGS: Albino Swiss, mouse, prefrontal cortex (FC), intraperitoneal, acute, combination F15599 0.05 mg/kg + VU0357017 1 mg/kg; read-out: PFC
PROPERTY: concentration at 30 min (ng/mL)
The answer is to be given in ng/mL; state only the numeric part.

Query :: Look up concentration at 30 min for this molecule: CCOC(=O)N1CCC(NCCNC(=O)c2ccccc2C)CC1 [VU0357017]
Result :: 2.25

###

Parameter: concentration at 30 min. Scope: all listed entries.
# PROCEDURE DETAILS: Pharmacokinetic analysis of drug-drug interactions (plasma, FC concentration, FC penetration)
# Type: in vivo, mice
# SETTINGS: Albino Swiss, mouse, prefrontal cortex (FC), intraperitoneal, acute, top doses alone (VU0357017 5, VU0152100 1, VU0238429 5, F15599 0.1 mg/kg), 30 min after administration; read-out: PFC
The answer is to be given in ng/mL; state only the numeric part.

Query :: Look up concentration at 30 min for this compound: CCOC(=O)N1CCC(NCCNC(=O)c2ccccc2C)CC1 [VU0357017]
Result :: 71.7

Now let's try a different one.
Query :: Look up concentration at 30 min for this compound: COc1ccc(CN2C(=O)C(=O)c3cc(OC(F)(F)F)ccc32)cc1 [VU0238429]
Result :: 256

###

# PROCEDURE DETAILS: in vivo
# Set-up: species or system mice
# SETTINGS: Albino Swiss, mouse, ip, 0.1 mg/kg, Cmax plasma
PROPERTY: Cmax (ng/mL)
The answer is to be given in ng/mL; state only the numeric part.

Query :: Look up Cmax for this compound: Cc1cnc(CNCC2(F)CCN(C(=O)c3ccc(F)c(Cl)c3)CC2)nc1
Result :: 27
